Where do these numbers come from? They come from paper PMC7216583.

assay: in vitro; details: human, Host viability (%) mean
readout-type: viability at 72 h (%)

[[record]]
compound = "O=C(C[S+]([O-])Cc1ccco1)NC/C=C\\COc1cc(CN2CCCCC2)ccn1 (stereo not shown) [Lafutidine, reference compound]"
recorded_result = 92.7

[[record]]
compound = "Cn1cc(-c2ccc3nnc(C(F)(F)c4ccc5ncccc5c4)n3n2)cn1"
recorded_result = 77.5

[[record]]
compound = "CCOc1ccn(-c2ccc(F)cc2)c(=O)c1C(=O)Nc1ccc(Oc2ccnc(N)c2Cl)c(F)c1"
recorded_result = 72

[[record]]
compound = "CCc1ccc(OCc2ccccc2C(=O)Nc2ccc3nc(C)cc(N)c3c2)cc1"
recorded_result = 16.4


###

assay: in vitro; settings: human, Host viability (%) mean, preliminary screen, mean
readout-type: viability at 72 h (%)

[[record]]
molecule = "Cc1cc(Nc2cc(N3CCN(C)CC3)nc(/C=C/c3ccccc3)n2)n[nH]1 [ENMD-2076 L-(+)-Tartaric acid]"
readout_type = "viability at 72 h"
recorded_result = 35.5


###

test system: Toxoplasma gondii RH-2F tachyzoites; assay: microbe, parasite or virus in culture; conditions: 72 h, read-out: Parasite inhibition (%) mean, preliminary screen of compound library, mean
Structures can show the parent of a compound that is named as a salt.
The following compounds are shown together with reported inhibition of growth at 5 µM values.
readout-type: inhibition of growth at 5 µM (%)

[[record]]
compound = "CN(C)C1CCN(C(=O)c2ccc(NC(=O)Nc3ccc(-c4nc(N5CCOCC5)nc(N5CCOCC5)n4)cc3)cc2)CC1 [PF-05212384 (PKI-587)]"
recorded_result = 40.5

[[record]]
compound = "CNCC(O)c1ccc(O)cc1 (stereo not shown) [Synephrine HCl]"
recorded_result = 3.7

[[record]]
compound = "CN(C)[C@@H](CCOc1cccc2ccccc12)c1ccccc1 [Dapoxetine hydrochloride (Priligy)]"
recorded_result = -0.2

[[record]]
compound = "O=c1sn(-c2cccc3ccccc23)c(=O)n1Cc1ccccc1 [Tideglusib]"
recorded_result = 52.8

[[record]]
compound = "CN1CCN(c2cccc(Nc3nc4c(-c5ccc(S(C)(=O)=O)cc5)cccn4n3)c2)CC1 [CEP33779]"
recorded_result = 7.8

[[record]]
compound = "COc1ccc([C@@H]2Sc3ccccc3N(CCN(C)C)C(=O)[C@@H]2OC(C)=O)cc1 [Diltiazem HCl (Tiazac)]"
recorded_result = -15.8

[[record]]
compound = "Cc1onc(-c2ccccc2Cl)c1C(=O)N[C@@H]1C(=O)N2[C@@H](C(=O)O)C(C)(C)S[C@@H]12 [Cloxacillin sodium (Cloxacap)]"
recorded_result = 0.2

[[record]]
compound = "CCCCc1oc2ccc(NS(C)(=O)=O)cc2c1C(=O)c1ccc(OCCCN(CCCC)CCCC)cc1 [Dronedarone HCl (Multaq)]"
recorded_result = 2.5

[[record]]
compound = "CCC(CC)[C@H](NC(C)=O)[C@@H]1[C@H](O)[C@@H](C(=O)O)C[C@H]1NC(=N)N [Peramivir Trihydrate]"
recorded_result = -0.4

[[record]]
compound = "CC(=O)NCC(=O)N1[C@H]2CC[C@H]1c1cc(Nc3ncc(C(F)(F)F)c(NC4CCC4)n3)ccc12 [PF-03814735]"
recorded_result = 80.4

[[record]]
compound = "O=C(O)CC[C@H]1CC[C@@](c2cc(F)ccc2F)(S(=O)(=O)c2ccc(Cl)cc2)CC1 [MK-0752]"
recorded_result = 7.5

[[record]]
compound = "CCNC(=O)CCC/C=C\\C[C@@H]1[C@@H](/C=C/[C@@H](O)CCc2ccccc2)[C@H](O)C[C@@H]1O [Bimatoprost]"
recorded_result = 9

[[record]]
compound = "CC1(C)[C@@H](O[C@H]2O[C@H](C(=O)O)[C@@H](O)[C@H](O)[C@@H]2O[C@@H]2O[C@H](C(=O)O)[C@@H](O)[C@H](O)[C@H]2O)CC[C@@]2(C)[C@H]3C(=O)C=C4[C@@H]5C[C@@](C)(C(=O)O)CC[C@]5(C)CC[C@@]4(C)[C@]3(C)CC[C@@H]12 [Ammonium Glycyrrhizinate (AMGZ)]"
recorded_result = 0.1

[[record]]
compound = "Cc1cc(C)c(Nc2ccnc(Nc3ccc(C#N)cc3)n2)c(C)c1 [Dapivirine]"
recorded_result = 0.8

[[record]]
compound = "NCCCCCNCC12CC3CC(CC(C3)C1)C2 [IEM 1754 dihydrobroMide]"
recorded_result = 15.8

[[record]]
compound = "CCc1ccc(OCc2ccccc2C(=O)Nc2ccc3nc(C)cc(N)c3c2)cc1 [JTC-801]"
recorded_result = 98.8

[[record]]
compound = "O=C(O)CCCCC(CCSCc1ccccc1)SCc1ccccc1 (stereo not shown) [CPI-613]"
recorded_result = 31.1

[[record]]
compound = "NS(=O)(=O)c1ccc(NC(=O)Nc2ccc(F)cc2)cc1 [U-104]"
recorded_result = 5

[[record]]
compound = "N[C@@H](CSCCCO)C(=O)O [Fudosteine]"
recorded_result = 11

[[record]]
compound = "CC(C)c1ccc(NC(=O)Cn2cnc3c2c(=O)n(C)c(=O)n3C)cc1 [HC-030031]"
recorded_result = 1.6

[[record]]
compound = "N#C[C@@H]1CCCN1C(=O)CNC12CC3CC(CC(O)(C3)C1)C2 [Vildagliptin (LAF-237)]"
recorded_result = -11.7

[[record]]
compound = "O=C(NCC1CN(c2ccc(N3CCOCC3=O)cc2)C(=O)O1)c1ccc(Cl)s1 (stereo not shown) [Rivaroxaban (Xarelto)]"
recorded_result = 0.4

[[record]]
compound = "Cc1c[nH]c(-c2cnc(NCCNc3ccc(C#N)cn3)nc2-c2ccc(Cl)cc2Cl)n1 [CHIR-99021 (CT99021) HCl]"
recorded_result = 43.9

[[record]]
compound = "CC[C@H](Nc1ncnc2[nH]cnc12)c1nc2cccc(F)c2c(=O)n1-c1ccccc1 [CAL-101 (GS-1101)]"
recorded_result = 47.8

[[record]]
compound = "CCn1cc(-c2ccnc3[nH]c(-c4cccc(CN(C)C)c4)cc23)c(-c2ccc(NC(=O)N(C)C)cc2)n1 [GSK1070916]"
recorded_result = 79.9

[[record]]
compound = "COc1c(OCCCN2CCOCC2)ccc2c1N=C(NC(=O)c1cnc(N)nc1)N1CCN=C21 [BAY80-6946]"
recorded_result = 40.8

[[record]]
compound = "Fc1cc(-c2cccc3ncc(-c4cnn(C5CCNCC5)c4)nc23)cc(F)c1CN1CCOCC1 [NVP-BSK805 2HCl]"
recorded_result = 14.6

[[record]]
compound = "COc1cc(OC)c(NC(=O)Nc2cc(C)on2)cc1Cl [PNU-120596]"
recorded_result = -38.8

[[record]]
compound = "C[C@H]1CCO[C@H]2Cn3cc(C(=O)NCc4ccc(F)cc4F)c(=O)c(O)c3C(=O)N21 [S/GSK1349572 (GSK1349572)]"
recorded_result = 0.2

[[record]]
compound = "O=C[C@H](O)[C@@H](O)[C@H](O)[C@H](O)CO [Dextrose (D-glucose)]"
recorded_result = -33.7

[[record]]
compound = "CC(=O)NS(=O)(=O)c1ccc(N)cc1 [Sulfacetamide Sodium]"
recorded_result = 0.9

